molecular target: Polyadenylate-binding protein 1 (Homo sapiens); assay: MLLE domain peptide-binding blockers, IC50 – biochemical, fluorescence polarization, FITC-PAM2 peptide, dose response (AID 602259); assay type: functional; conditions: read-out: IC50_Mean
Sequence (P11940 whole entry, the tested form may be a part): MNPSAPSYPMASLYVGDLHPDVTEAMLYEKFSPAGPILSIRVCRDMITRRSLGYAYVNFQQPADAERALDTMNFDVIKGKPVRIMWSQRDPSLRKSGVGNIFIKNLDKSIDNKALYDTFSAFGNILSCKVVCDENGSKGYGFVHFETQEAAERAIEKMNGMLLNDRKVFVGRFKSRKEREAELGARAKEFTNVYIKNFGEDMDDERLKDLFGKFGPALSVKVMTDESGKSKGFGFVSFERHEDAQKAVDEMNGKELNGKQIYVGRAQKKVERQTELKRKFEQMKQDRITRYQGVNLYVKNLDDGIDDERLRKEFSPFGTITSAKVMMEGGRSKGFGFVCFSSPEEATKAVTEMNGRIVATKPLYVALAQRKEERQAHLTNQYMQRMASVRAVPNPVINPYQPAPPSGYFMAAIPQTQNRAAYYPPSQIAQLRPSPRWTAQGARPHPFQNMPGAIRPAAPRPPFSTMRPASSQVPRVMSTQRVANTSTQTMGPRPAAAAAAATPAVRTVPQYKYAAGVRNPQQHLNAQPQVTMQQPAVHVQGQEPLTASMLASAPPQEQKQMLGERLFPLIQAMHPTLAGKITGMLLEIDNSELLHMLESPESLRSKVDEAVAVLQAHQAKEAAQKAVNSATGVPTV
Calls of active or inactive are those of the source.
reportedProperty: IC50

// IC50 value for Cc1[nH]n(C2=NCCS2)c(=O)c1N=Nc1ccccc1 : > 66 µM (inactive)

// IC50 value for CN(C)c1oc(-c2ccccc2[N+](=O)[O-])nc1C#N : > 66 µM (inactive)

// IC50 value for CCOC(=O)c1sc(=S)n(-c2ccccc2Cl)c1SC : > 66 µM (inactive)

// IC50 value for CC(=O)NNC(=O)CN1C(=O)/C(=C/c2ccccc2)SC1=S : > 66 µM (inactive)

// IC50 value for COc1ccccc1OCC(=O)Nn1c(=S)[nH]c2ncccc2c1=O : > 66 µM (inactive)

* * *

Target: Streptokinase A (Streptococcus pyogenes serotype M1, UniProt P10520)
Sequence (P10520 whole entry): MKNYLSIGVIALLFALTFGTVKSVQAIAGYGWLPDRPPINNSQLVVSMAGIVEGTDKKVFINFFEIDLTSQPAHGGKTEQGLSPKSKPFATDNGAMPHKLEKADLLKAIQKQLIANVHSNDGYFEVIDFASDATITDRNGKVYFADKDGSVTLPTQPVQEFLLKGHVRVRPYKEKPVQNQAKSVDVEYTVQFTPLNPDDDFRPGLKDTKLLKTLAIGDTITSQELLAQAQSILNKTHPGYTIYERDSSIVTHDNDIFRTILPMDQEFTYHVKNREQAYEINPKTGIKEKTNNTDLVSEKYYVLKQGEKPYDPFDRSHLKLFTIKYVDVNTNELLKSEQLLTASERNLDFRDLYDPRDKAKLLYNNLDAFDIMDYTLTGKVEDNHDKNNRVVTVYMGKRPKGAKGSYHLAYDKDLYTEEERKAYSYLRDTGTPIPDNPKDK
Experiment: viability-normalized secreted streptokinase activity reduction – plasminogen activation absorbance, OD405, dose response (AID 1914);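 also: secreted streptokinase activity via plasminogen activation per viability signal from cell pellet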
Format: functional, Streptococcus pyogenes M1 GAS
Calls of active or inactive are those of the source.
Entries and their measured EC50 follow.

Worked cases, answers included:
compound	EC50
CC[n+]1c(/C=C/N(C)c2ccccc2)n(-c2ccccc2)c2ccc(-c3nc4ccccc4s3)cc21	13.3 µM (active)
COc1ccc(C(=O)Nc2c3c(nn2-c2ccc([N+](=O)[O-])cc2)CS(=O)(=O)C3)cc1	> 150 µM (not active)

// EC50 value for CCC(NC(=S)NC1CCCCC1)c1ccc(C(C)C)cc1 (stereo unspecified) : 43.4 µM (active)

// EC50 value for Cn1c(Oc2ccccc2NCc2cc(Br)ccc2O)cc(=O)n(C)c1=O : > 150 µM (not active)

// EC50 value for COC(=O)[C@@]12CCCN1[C@H](c1ccc(-c3cccc(Cl)c3)c(OC)c1)[C@H]1C(=O)N(C)C(=O)[C@H]12 : > 150 µM (not active)

// EC50 value for Fc1ccc(CSc2ncnc3sc4c(c23)CCCC4)cc1 : 13.3 µM (active)

// EC50 value for Oc1cccc(-c2nc3ccc4ccccc4c3c3c2CCC3)c1 : 27.8 µM (active)

// EC50 value for Cc1ccc(C(=O)N2CCOCC2)cc1S(=O)(=O)N1CCOCC1 : > 150 µM (not active)

// EC50 value for COc1ccc(NC(=O)CSc2ccc3nnc(-c4ccccn4)n3n2)c(OC)c1 : > 150 µM (not active)

* * *

# collection of AC50 values tested on Cytochrome P450 2C9 (Homo sapiens, UniProt P11712)
# Sequence (P11712 whole entry): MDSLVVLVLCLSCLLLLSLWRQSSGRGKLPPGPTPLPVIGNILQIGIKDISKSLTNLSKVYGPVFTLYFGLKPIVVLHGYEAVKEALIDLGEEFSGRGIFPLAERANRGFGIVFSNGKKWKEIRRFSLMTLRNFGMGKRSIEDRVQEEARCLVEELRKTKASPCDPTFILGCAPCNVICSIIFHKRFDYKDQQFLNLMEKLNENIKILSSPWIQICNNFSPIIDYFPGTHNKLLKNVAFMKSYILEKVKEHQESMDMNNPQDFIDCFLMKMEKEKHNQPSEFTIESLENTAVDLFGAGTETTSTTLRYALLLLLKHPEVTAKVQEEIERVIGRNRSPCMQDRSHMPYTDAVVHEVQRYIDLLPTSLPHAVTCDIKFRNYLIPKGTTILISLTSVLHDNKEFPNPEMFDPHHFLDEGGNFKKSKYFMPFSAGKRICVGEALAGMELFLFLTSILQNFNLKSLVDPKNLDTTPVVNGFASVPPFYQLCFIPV

Worked cases, answers included:
compound	experimentalValue
O=C(O)c1ccccc1Nc1cccc(C(F)(F)F)c1	10 µM (inconclusive)
Cc1noc(NS(=O)(=O)c2ccc(NC(=O)CC34CC5CC(CC(Br)(C5)C3)C4)cc2)c1C	22.4 µM (inconclusive)
CCOC(=O)C1C(=O)C=C(/C=C/c2ccccc2)CC1c1ccc(Cl)cc1 (centres undefined)	1.41 µM (inconclusive)
CC(C)OC(=O)/C(=C\C=C\c1ccccc1)NC(=O)c1ccccc1	2.82 µM (inconclusive)
Cc1cccc(CNc2ncnc3ccc(-c4cccc(C#N)c4)cc23)c1	0.794 µM (inconclusive)

Record Cc1cc(NC(=O)Nc2ccc(F)cc2)no1 / Cytochrome P450 2C9 (Homo sapiens, UniProt P11712), AC50 recorded as 15.8 µM (inconclusive)

Record CC(C)Oc1ccc(N2CC(C(=O)OCC(=O)NCc3ccccc3)CC2=O)cc1 (centres undefined) / Cytochrome P450 2C9 (Homo sapiens, UniProt P11712), AC50 recorded as 28.2 µM (inconclusive)

Record CCCCCCCCN[C@@H](C)[C@H](O)c1ccc(SC(C)C)cc1 / Cytochrome P450 2C9 (Homo sapiens, UniProt P11712), AC50 recorded as 0.00501 µM (inconclusive)

Record Cc1nc(SCC(=O)Nc2ccc(N3CCOCC3)cc2)nc(C)c1C / Cytochrome P450 2C9 (Homo sapiens, UniProt P11712), AC50 recorded as 12.6 µM (inconclusive)

Record CN(C)C(CNC(=O)NC1CCCCC1)c1cccnc1 (centres undefined) / Cytochrome P450 2C9 (Homo sapiens, UniProt P11712), AC50 recorded as 0.398 µM (inconclusive)

* * *

assay: viability of HCT116 lacking mutant beta-catenin – cell-based, human colon tumor, dose response (AID 1045); assay type: functional;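 also: HCT116 colon tumor cells with beta catenin knocked out; cells exposed to compound for 60 hours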
The source made the active and inactive calls.
reportedProperty: EC50

Worked cases, answers included:
molecule	reportedProperty	experimentalValue
Cc1ccc2[nH]c(C)c(/C=N/Nc3nc4ccccc4s3)c2c1	EC50	19.7 µM (active)
COc1ccc(C2Nc3ccc4ccccc4c3-c3c2c(=O)oc2ccccc32)cc1 (centres undefined)	EC50	9.13 µM (active)
O=C(Cn1c(=O)oc2cc(S(=O)(=O)N3CCCCC3)ccc21)N1CCc2ccccc21	EC50	16.9 µM (active)

// EC50 value for Cc1cc2cc(C)c3nnc(SCC(=O)Nc4ccc(S(=O)(=O)N5CCCCC5)cc4)n3c2cc1C : 7.24 µM (active)

* * *

Entries and their measured AC50 follow.
target: UniProt:Q63470; assay type: biochemical, Homo sapiens
The source made the active and inactive calls.

molecule	targetDesc	experimentalValue
COc1ccc(-c2csc(N=C(N)N)n2)cc1	UniProt:Q63470	0.541 µM (active)
CCN1C=CC(=C2C(=O)c3ccccc3C2=O)C=C1	UniProt:Q63470	13.6 µM (active)
c1ccc2sc(NN=C3CCCCCC3)nc2c1	UniProt:Q63470	3.89 µM (active)

// AC50 value for O=S(=O)(O)c1cccc(N=Nc2c(O)ccc3ccccc23)c1 : 5.88 µM (active)

// AC50 value for O=c1cc(-c2ccccc2Cl)oc2c(NS(=O)(=O)c3ccccc3C(F)(F)F)ccc(O)c12 : 65.4 µM (active)

// AC50 value for N#CC1=C(N)Oc2ccc3ccc(O)cc3c2C1c1ccsc1 (stereo not drawn) : 8.56 µM (active)

// AC50 value for COc1ccc(NC(=O)/C(C#N)=C\c2ccc(-c3cccc(C(=O)O)c3C)o2)cc1 : 1.7 µM (active)

// AC50 value for Cc1nc2c(ccc3nsnc32)[nH]1 : 5.91 µM (active)

* * *

biological target: Nonstructural protein 1 (Influenza A virus, UniProt Q194T2); type: functional, Influenza A virus (A/California/07/2009(H1N1))
Sequence (Q194T2 whole entry): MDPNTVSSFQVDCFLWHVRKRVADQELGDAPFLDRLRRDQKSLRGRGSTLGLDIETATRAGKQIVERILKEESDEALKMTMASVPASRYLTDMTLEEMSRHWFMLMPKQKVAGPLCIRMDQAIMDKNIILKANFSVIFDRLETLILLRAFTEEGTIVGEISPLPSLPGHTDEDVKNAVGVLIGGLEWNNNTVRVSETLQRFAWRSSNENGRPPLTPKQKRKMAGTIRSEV
The source made the active and inactive calls.
reportedProperty: IC50

Worked cases, answers included:
compound	IC50
Cc1cc(C)c(Nc2cc(S(=O)(=O)O)c(N)c3c2C(=O)c2ccccc2C3=O)c(C)c1	3.96 µM (active)
CCNc1nc(NCC)nc(N(C)N)n1	12.7 µM (active)
C=CCOc1ccc(CNc2ccc(NC(=O)CCC)cc2)cc1OCC	> 100 µM (active)

// IC50 value for CC1(C)SC2C(C(=O)O)N=C(Cc3ccccc3)N2C1C(=O)O (stereo not given) : 12.2 µM (active)

// IC50 value for CCOC(=O)/C(C#N)=C1/C(=O)N(Cc2ccccc2)c2ccccc21 : 99.6 µM (active)

* * *

target: Ubiquitin-conjugating enzyme E2 N (Homo sapiens, UniProt P61088); format: functional;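 also: Dose-response confirmation in a TR-FRET assay detecting UBC13-driven polyubiquitin chain formation, inhibition measured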
Sequence (P61088 whole entry): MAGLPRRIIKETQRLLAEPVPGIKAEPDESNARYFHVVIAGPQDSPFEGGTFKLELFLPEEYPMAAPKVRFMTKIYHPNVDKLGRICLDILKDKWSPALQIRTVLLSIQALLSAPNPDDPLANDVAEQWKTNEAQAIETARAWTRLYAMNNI
Calls of active or inactive are those of the source.
Write down one outcome, taken from active, inactive

O=C(CCCCn1c(=O)c2ccccc2n(Cc2ccccc2)c1=O)NC1CCN(Cc2ccccc2)CC1 active
NC1=NC[C@@H](CC2CCCCC2)N1CCc1cc(C(F)(F)F)cc(C(F)(F)F)c1 active
COCCN=C(S)N=Nc1c(O)[nH]c2c(C)cc(C)cc12 active
CCN=C(S)N=Nc1c(O)[nH]c2ccc(C(C)C)cc12 active
COc1ccc(-c2sc3ccccc3c2-c2ccc(OCCN3CCOCC3)cc2)cc1 active

Could you kindly confirm the outcome this assay logged for COCC(=O)O[C@]1(CCN(C)CCCc2nc3ccccc3[nH]2)CCc2cc(F)ccc2[C@@H]1C(C)C ? inactive
